Test system: DA receptors in the brain
Assay: Block of apomorphine induced stereotypies in rats (0-3 scale scoring)
Format: in vivo, Male Sprague-Dawley rats
Settings: i.p., 60 min prior to apomorphine hydrochloride 1 mg/kg s.c.; dose reducing strength of stereotypies by 50% over 60 min
I'd appreciate it if you could supply Stereotypies ED50 values for the items below.
Express the result in µmol/kg but write the number alone.

[ask] Recorded Stereotypies ED50 for O=C1c2ccc(Cl)cc2CN1C1CCN(Cc2ccc(Cl)cc2)CC1 [Example 15] with DA receptors in the brain, please?
[reply] 14

[ask] Recorded Stereotypies ED50 for O=C1c2ccc(Br)cc2CN1C1CCN(Cc2ccc(Cl)cc2)CC1 [Example 11] with DA receptors in the brain, please?
[reply] 11

[ask] Recorded Stereotypies ED50 for O=C1c2ccc(Cl)cc2CN1C1CCN(Cc2ccccc2)CC1 [Example 3] with DA receptors in the brain, please?
[reply] 16.0

[ask] Recorded Stereotypies ED50 for O=C1c2ccc(F)cc2CN1C1CCN(Cc2ccccc2)CC1 [Example 1] with DA receptors in the brain, please?
[reply] 22.0

[ask] Recorded Stereotypies ED50 for COc1ccc(CN2CCC(N3Cc4cc(Cl)ccc4C3=O)CC2)cc1 [Example 7] with DA receptors in the brain, please?
[reply] 9.5

[ask] Recorded Stereotypies ED50 for O=C1c2ccc(Br)cc2CN1C1CCN(Cc2ccccc2)CC1 [Example 2] with DA receptors in the brain, please?
[reply] 17.5

[ask] Recorded Stereotypies ED50 for Cc1ccc(CN2CCC(N3Cc4cc(Cl)ccc4C3=O)CC2)cc1 [Example 16] with DA receptors in the brain, please?
[reply] 9

[ask] Recorded Stereotypies ED50 for Cc1ccc(CN2CCC(N3Cc4cc(Br)ccc4C3=O)CC2)cc1 [Example 14] with DA receptors in the brain, please?
[reply] 6.5
